System: native tau aggregates
Assay: TAU radioligand in vitro displacement assay ([3H]T808, autoradiography on human AD brain sections)
Format: binding
Details: compound 10 nM, radioligand [3H]T808 10 nM
assay-readout: % displacement of [3H]T808 (10 nM) at 10 nM

>>> print(df.to_string())
                            structure_string  measured_value
 0  CNc1ccn2cc(-c3ccc(N(C)Cc4ccccc4)cc3)nc2c1             14%
 1          CNc1ccn2cc(-c3ccc(OCCF)cc3)nc2c1             40%
 2     CN(C)c1ccn2cc(-c3ccc4c(c3)OCCO4)nc2c1             39%
 3           CNc1ccn2cc(-c3cccc(OCF)c3)nc2c1             40%
 4      CN(C)c1ccn2cc(-c3ccc(COCCF)cc3)nc2c1             10%
 5   COc1ccc(-c2cn3ccc(N4CCC(F)CC4)cc3n2)cc1             26%
 6         COc1cc(-c2cn3ccc(NCCF)cc3n2)ccc1O             11%
 7                 CNc1ccn2cc(-c3cccs3)nc2c1             50%
 8       CCN(CC)c1ccc(-c2cn3ccc(NC)cc3n2)cc1             18%
 9        COc1ccc(-c2cn3ccc(NCCF)cc3n2)cc1OC             21%
10         CN(C)c1ccn2cc(-c3ccc(CO)cc3)nc2c1             32%
11       Cc1ccc(-c2cn3ccc(N4CCOCC4)cc3n2)cc1             23%
12        CN(C)c1ccn2cc(-c3ccc(OCF)cc3)nc2c1             46%
13      CN(C)c1ccn2cc(-c3ccc4c(c3)OCO4)nc2c1             52%
